# test-name: Bioavailability in dog at 0.5 mg/kg, iv and 2 mg/kg, po
# Assay type: ADME, organism-based, Canis lupus familiaris
# stated-conditions: in vivo
endpoint-name: bioavailability

| smiles-entry | endpoint-result |
| --- | --- |
| NC(=O)c1cc(C(N)=O)n(-c2cccc(-c3cc(C(F)(F)F)ccc3C(F)(F)F)c2)n1 | 33% |

---

# target-of-assay: hERG (KCNH2) (Homo sapiens)
# Sequence (Q12809 whole entry): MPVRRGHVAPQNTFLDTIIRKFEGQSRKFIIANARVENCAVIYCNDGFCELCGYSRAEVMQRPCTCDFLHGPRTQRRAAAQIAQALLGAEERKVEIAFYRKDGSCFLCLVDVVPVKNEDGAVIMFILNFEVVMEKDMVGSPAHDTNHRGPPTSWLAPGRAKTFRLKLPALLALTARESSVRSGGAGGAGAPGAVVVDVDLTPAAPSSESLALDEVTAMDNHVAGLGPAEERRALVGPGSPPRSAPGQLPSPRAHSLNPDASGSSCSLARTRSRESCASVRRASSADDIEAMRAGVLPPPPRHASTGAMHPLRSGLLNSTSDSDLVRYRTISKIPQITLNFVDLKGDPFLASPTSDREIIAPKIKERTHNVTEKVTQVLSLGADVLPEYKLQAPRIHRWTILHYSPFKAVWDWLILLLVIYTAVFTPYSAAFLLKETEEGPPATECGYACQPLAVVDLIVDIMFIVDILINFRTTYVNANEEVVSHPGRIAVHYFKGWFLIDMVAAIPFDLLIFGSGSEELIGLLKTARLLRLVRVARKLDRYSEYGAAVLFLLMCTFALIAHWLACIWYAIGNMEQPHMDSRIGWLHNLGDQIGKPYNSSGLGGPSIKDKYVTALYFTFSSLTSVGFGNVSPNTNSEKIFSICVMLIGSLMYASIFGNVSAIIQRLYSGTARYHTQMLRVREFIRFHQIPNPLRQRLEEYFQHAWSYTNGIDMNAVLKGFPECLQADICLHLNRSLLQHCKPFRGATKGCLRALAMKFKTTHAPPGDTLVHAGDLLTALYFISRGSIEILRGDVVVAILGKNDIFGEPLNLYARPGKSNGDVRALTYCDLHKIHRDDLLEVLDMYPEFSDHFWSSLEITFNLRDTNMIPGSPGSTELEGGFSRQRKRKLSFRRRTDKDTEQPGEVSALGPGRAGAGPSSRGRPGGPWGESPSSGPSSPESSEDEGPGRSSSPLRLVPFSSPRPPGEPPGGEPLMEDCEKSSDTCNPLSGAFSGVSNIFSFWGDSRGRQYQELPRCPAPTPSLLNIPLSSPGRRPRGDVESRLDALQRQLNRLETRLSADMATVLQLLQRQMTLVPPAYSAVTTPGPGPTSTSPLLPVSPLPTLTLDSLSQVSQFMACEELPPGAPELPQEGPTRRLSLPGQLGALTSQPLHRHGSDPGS
# test-name: Inhibition of MK-0499 binding to human ERG at 10 uM
# stated-conditions: probe MK-0499
Rule: Yes for inhibition at 10 µM not less than 20%, No for anything less.

| smiles-entry | category |
| --- | --- |
| CCOC(=O)c1cc(C(N)=O)nn1-c1cccc(-c2ccccc2OC(F)(F)F)c1 | Yes |
| NC(=O)c1nn(-c2cccc(-c3ccccc3OC(F)(F)F)c2)c(C(N)=O)c1C(N)=O | Yes |
| Cc1c(C(N)=O)c(C(N)=O)nn1-c1cccc(-c2ccccc2OC(F)(F)F)c1 | No |
| NC(=O)c1cc(C(N)=O)n(-c2cccc(-c3cc(C(F)(F)F)ccc3C(F)(F)F)c2)n1 | No |
| CCNC(=O)c1cc(C(=O)NCC)n(-c2cccc(-c3ccccc3OC(F)(F)F)c2)n1 | Yes |
| NC(=O)c1cn(-c2cccc(-c3ccccc3OC(F)(F)F)c2)nc1C(N)=O | No |
| Cc1cc(C(N)=O)nn1-c1cccc(-c2ccccc2OC(F)(F)F)c1 | Yes |
| NC(=O)c1cc(C(N)=O)n(-c2cccc(-c3ccccc3OC(F)(F)F)c2)n1 | Yes |

---

# test-name: AUC in dog at 2 mg/kg, po
# Type: ADME, organism-based, Canis lupus familiaris
# Design: dose 2 mg/kg, route oral
# stated-conditions: plasma

| smiles-entry | AUC / µM·h |
| --- | --- |
| NC(=O)c1cc(C(N)=O)n(-c2cccc(-c3cc(C(F)(F)F)ccc3C(F)(F)F)c2)n1 | 50 |

---

# test-name: Cmax in rat at 1 mg/kg, iv and 3 mg/kg, po
# Assay type: ADME, organism-based
# stated-conditions: in vivo

| smiles-entry | Cmax [nM] |
| --- | --- |
| NC(=O)c1cc(C(N)=O)n(-c2cccc(-c3cc(C(F)(F)F)ccc3C(F)(F)F)c2)n1 | 2640 |

---

# test-name: Half life in dog at 0.5 mg/kg, iv and 2 mg/kg, po
# Format: ADME, organism-based, Canis lupus familiaris
# stated-conditions: in vivo

| smiles-entry | half-life |
| --- | --- |
| NC(=O)c1cc(C(N)=O)n(-c2cccc(-c3cc(C(F)(F)F)ccc3C(F)(F)F)c2)n1 | 12 h |

---

# target-of-assay: Sodium channel protein type 5 subunit alpha (Homo sapiens)
# Sequence (Q14524 whole entry): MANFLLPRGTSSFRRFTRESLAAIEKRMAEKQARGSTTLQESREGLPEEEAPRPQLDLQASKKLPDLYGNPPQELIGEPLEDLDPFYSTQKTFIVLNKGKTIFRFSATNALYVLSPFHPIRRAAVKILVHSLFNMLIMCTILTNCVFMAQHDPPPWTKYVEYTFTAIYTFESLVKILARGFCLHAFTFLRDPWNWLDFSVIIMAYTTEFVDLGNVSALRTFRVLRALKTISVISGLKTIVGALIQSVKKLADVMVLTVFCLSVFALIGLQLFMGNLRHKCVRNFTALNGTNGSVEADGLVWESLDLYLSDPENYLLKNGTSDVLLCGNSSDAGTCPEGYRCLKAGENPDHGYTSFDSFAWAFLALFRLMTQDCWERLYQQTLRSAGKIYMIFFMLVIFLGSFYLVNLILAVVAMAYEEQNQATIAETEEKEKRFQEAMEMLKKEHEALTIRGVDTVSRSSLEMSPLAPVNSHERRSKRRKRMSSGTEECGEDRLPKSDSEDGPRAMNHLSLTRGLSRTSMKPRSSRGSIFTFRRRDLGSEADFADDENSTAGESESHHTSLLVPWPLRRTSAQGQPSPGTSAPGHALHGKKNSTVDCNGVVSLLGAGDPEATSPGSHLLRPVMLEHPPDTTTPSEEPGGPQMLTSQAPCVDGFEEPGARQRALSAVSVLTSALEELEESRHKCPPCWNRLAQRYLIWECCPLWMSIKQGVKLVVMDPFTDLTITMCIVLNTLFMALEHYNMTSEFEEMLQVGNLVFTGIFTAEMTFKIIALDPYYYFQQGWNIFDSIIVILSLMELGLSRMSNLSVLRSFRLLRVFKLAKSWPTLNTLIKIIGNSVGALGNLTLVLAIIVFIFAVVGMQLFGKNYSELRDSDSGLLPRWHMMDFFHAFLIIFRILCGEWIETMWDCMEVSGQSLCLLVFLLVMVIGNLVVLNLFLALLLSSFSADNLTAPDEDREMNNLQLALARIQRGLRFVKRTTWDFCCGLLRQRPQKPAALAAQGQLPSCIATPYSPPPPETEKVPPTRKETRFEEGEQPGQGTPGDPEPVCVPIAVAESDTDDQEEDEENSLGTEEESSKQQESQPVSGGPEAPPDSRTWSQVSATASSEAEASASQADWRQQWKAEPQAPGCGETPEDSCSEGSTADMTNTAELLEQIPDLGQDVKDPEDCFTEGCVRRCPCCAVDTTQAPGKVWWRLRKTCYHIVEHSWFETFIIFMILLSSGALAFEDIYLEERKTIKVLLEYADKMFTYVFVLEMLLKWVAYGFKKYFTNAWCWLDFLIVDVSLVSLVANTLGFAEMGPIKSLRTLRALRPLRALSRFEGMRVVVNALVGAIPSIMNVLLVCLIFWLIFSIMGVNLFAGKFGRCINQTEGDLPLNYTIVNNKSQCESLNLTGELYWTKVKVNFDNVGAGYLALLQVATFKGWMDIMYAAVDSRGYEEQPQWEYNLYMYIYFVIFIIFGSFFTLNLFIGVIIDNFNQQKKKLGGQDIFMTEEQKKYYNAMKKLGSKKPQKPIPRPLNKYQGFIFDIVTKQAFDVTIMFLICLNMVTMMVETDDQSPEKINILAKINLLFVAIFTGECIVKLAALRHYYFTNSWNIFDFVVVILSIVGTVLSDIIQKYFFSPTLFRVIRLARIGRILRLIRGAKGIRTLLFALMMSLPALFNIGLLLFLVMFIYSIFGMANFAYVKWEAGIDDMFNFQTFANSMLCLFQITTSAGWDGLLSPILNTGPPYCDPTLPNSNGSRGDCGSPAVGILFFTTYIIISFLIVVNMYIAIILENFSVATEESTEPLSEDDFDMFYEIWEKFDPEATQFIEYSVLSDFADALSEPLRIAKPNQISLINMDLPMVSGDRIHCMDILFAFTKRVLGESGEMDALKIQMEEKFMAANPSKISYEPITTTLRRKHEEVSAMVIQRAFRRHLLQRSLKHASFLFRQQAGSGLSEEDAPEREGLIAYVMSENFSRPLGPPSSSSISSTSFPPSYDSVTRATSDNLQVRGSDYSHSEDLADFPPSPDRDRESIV
# test-name: Inhibition of Nav1.5 by VIPR assay
pIC50: −log10 of the molar value.

| smiles-entry | pIC50 |
| --- | --- |
| NC(=O)c1cc(C(N)=O)n(-c2cccc(-c3cc(C(F)(F)F)ccc3C(F)(F)F)c2)n1 | 5.88 |

---

# test-name: Bioavailability in rat at 1 mg/kg, iv and 3 mg/kg, po
# Type: ADME, organism-based
# stated-conditions: in vivo

| smiles-entry | reading-unit | bioavailability |
| --- | --- | --- |
| NC(=O)c1cc(C(N)=O)n(-c2cccc(-c3cc(C(F)(F)F)ccc3C(F)(F)F)c2)n1 | % | 60 |

---

# test-name: Half life in rat at 1 mg/kg, iv and 3 mg/kg, po
# Type: ADME, organism-based
# stated-conditions: in vivo
endpoint-name: half-life (h)

| smiles-entry | reading-unit | endpoint-result |
| --- | --- | --- |
| NC(=O)c1cc(C(N)=O)n(-c2cccc(-c3cc(C(F)(F)F)ccc3C(F)(F)F)c2)n1 | h | 3.1 |

---

# test-name: Cmax in dog at 20 mg/kg, po
# Assay type: ADME, organism-based, Canis lupus familiaris
# Set-up: dose 20 mg/kg, route oral
# stated-conditions: in vivo
endpoint-name: Cmax (µM)

| smiles-entry | endpoint-name | endpoint-result |
| --- | --- | --- |
| NC(=O)c1cc(C(N)=O)n(-c2cccc(-c3cc(C(F)(F)F)ccc3C(F)(F)F)c2)n1 | Cmax | 20.3 |

---

# target-of-assay: Cytochrome P450 3A4 (Homo sapiens)

| smiles-entry | target-of-assay | IC50 |
| --- | --- | --- |
| NC(=O)c1cc(C(N)=O)n(-c2cccc(-c3cc(C(F)(F)F)ccc3C(F)(F)F)c2)n1 | Cytochrome P450 3A4 (Homo sapiens) | > 100 µM |

---

# System: Canis familiaris
# test-name: Clearance in dog plasma at 0.5 mg/kg, iv and 2 mg/kg, po
# Assay type: ADME, organism-based, Canis lupus familiaris
# stated-conditions: in vivo
endpoint-name: clearance (mL/min/kg)

| smiles-entry | endpoint-name | endpoint-result |
| --- | --- | --- |
| NC(=O)c1cc(C(N)=O)n(-c2cccc(-c3cc(C(F)(F)F)ccc3C(F)(F)F)c2)n1 | clearance | 0.5 |

---

# test-name: Metabolic stability in rat liver microsomes assessed as compound remaining after 60 mins in presence of 10 uM substrate
# Format: ADME, Microsome
# stated-conditions: read-out: Stability

| smiles-entry | remaining at 1 h, 10 uM |
| --- | --- |
| NC(=O)c1cc(C(N)=O)n(-c2cccc(-c3cc(C(F)(F)F)ccc3C(F)(F)F)c2)n1 | > 99% |

---

// reported IC50 per item
# target-of-assay: Sodium channel protein type 9 subunit alpha (Homo sapiens, UniProt Q15858)
# Sequence (Q15858 whole entry): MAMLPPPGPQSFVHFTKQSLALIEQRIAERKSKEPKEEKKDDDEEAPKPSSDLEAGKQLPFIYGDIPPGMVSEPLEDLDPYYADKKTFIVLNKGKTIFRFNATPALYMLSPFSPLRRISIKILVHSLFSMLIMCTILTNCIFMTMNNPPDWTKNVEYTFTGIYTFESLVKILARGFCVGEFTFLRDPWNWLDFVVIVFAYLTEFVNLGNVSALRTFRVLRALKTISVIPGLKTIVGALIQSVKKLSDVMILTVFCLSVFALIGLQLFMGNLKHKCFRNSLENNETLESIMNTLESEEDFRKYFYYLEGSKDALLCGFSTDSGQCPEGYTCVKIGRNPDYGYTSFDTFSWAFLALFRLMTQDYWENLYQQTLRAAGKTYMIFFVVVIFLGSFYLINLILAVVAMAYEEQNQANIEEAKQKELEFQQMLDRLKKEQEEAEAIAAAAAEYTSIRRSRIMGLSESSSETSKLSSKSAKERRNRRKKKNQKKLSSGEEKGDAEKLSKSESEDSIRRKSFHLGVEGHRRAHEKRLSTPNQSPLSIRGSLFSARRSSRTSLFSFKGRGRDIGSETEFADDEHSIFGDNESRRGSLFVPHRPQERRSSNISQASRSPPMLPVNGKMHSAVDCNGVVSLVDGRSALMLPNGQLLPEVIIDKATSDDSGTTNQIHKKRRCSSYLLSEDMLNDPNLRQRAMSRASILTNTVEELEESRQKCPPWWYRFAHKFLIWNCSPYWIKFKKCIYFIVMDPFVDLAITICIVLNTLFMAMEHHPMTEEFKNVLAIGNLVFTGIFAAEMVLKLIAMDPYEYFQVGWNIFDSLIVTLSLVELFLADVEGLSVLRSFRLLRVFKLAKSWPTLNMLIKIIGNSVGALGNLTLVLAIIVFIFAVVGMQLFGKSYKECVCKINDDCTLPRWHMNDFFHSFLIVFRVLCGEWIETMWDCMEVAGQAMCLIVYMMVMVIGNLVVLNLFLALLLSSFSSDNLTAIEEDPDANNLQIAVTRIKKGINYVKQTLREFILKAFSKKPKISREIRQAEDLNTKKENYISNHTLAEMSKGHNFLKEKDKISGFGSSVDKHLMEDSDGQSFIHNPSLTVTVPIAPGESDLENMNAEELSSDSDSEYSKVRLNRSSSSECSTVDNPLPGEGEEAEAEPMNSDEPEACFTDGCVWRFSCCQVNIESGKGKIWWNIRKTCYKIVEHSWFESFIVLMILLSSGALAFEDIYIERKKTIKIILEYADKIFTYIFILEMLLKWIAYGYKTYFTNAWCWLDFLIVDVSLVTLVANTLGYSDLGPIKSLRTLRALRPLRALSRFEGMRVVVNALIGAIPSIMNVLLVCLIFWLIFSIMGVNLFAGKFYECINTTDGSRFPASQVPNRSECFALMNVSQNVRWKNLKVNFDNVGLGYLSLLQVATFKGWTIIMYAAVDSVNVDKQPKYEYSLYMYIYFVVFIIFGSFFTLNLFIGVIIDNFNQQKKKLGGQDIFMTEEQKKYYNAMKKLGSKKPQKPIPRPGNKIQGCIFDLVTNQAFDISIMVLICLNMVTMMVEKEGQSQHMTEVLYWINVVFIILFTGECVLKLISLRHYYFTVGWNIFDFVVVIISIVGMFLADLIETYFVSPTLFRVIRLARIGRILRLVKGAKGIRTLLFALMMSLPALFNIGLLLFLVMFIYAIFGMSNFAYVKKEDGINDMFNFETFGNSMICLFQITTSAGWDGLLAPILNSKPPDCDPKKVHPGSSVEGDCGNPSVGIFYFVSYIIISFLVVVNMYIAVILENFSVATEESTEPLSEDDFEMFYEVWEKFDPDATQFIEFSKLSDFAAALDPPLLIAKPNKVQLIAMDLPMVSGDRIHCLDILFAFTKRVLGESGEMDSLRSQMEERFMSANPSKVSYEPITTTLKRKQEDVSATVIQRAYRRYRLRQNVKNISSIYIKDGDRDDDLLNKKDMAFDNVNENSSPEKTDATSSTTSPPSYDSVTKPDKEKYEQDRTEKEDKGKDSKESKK
# test-name: Inhibition of human Nav1.7 by VIPR assay

| smiles-entry | IC50 |
| --- | --- |
| NC(=O)c1cc(C(N)=O)n(-c2cccc(-c3ccc(F)cc3OCC(F)(F)C(F)(F)F)c2)n1 | 106 nM |
| NC(=O)c1cc(C(N)=O)n(-c2cccc(-c3cccc(OC(F)(F)F)c3OCC(F)(F)C(F)(F)F)c2)n1 | 64 nM |
| NC(=O)c1nn(-c2cccc(-c3ccccc3OC(F)(F)F)c2)c(C(N)=O)c1C(N)=O | 115 nM |
| NC(=O)c1cc(C(N)=O)n(-c2cccc(-c3cccc(C(F)(F)F)c3OCC(F)(F)C(F)(F)F)c2)n1 | 147 nM |
| NC(=O)c1cc(C(N)=O)n(-c2cccc(-c3ccccc3OC(F)(F)F)c2)n1 | 132 nM |
| NC(=O)c1cc(C(N)=O)n(-c2cccc(-c3c(F)cccc3OC(F)(F)F)c2)n1 | 106 nM |
| NC(=O)c1cc(C(N)=O)n(-c2cccc(-c3ccccc3C(F)(F)F)c2)n1 | 155 nM |

---

# target-of-assay: Sodium channel protein type 10 subunit alpha (Homo sapiens, UniProt Q9Y5Y9)
# test-name: Inhibition of human Nav1.8 by VIPR assay
endpoint-name: IC50

| smiles-entry | endpoint-result |
| --- | --- |
| NC(=O)c1cc(C(N)=O)n(-c2cccc(-c3cccc(OC(F)(F)F)c3F)c2)n1 | 1510 nM |
| NC(=O)c1cc(C(N)=O)n(-c2cccc(-c3ccccc3C(F)(F)F)c2)n1 | 915 nM |
| NC(=O)c1cc(C(N)=O)n(-c2cccc(-c3c(F)cccc3OC(F)(F)F)c2)n1 | 802 nM |
